Hey, just so you know, these numbers are from patent US11891379B2.

test: Metabolic stability in rat liver microsomes; type: in vitro ADME; conditions: rat liver microsomes 0.5 mg/mL, test compound 2 μM, sampling 0-60 min; read-out: Half life t1/2 (min) in rat liver microsomes
outcome_measure: half-life at 2 μM (min)

I: CNC(=O)c1ccc(Nc2ncc(C(F)(F)F)c(NCc3nccnc3N(C)S(C)(=O)=O)n2)cc1 [Defactinib]
II: [2H]C([2H])([2H])NC(=O)c1ccc(Nc2ncc(C(F)(F)F)c(NCc3nccnc3N(C)S(C)(=O)=O)n2)cc1 [Compound 1]
III: [2H]C([2H])([2H])NC(=O)c1ccc(Nc2ncc(C(F)(F)F)c(NCc3nccnc3N(C([2H])([2H])[2H])S(C)(=O)=O)n2)cc1 [Compound 3]
IV: [2H]C([2H])([2H])N(c1nccnc1CNc1nc(Nc2ccc(C(=O)NC)cc2)ncc1C(F)(F)F)S(C)(=O)=O [Compound 2]
Falling order of half-life at 2 μM, please. Lab note: final answer is the ordered label list.
III, II, I, IV

---

assay: Metabolic stability in mouse liver microsomes; format: in vitro ADME; settings: mouse liver microsomes 0.5 mg/mL, test compound 2 μM, sampling 0-60 min; read-out: Half life t1/2 (min) in mouse liver microsomes
outcome_measure: half-life at 2 μM (min)

1: [2H]C([2H])([2H])NC(=O)c1ccc(Nc2ncc(C(F)(F)F)c(NCc3nccnc3N(C([2H])([2H])[2H])S(C)(=O)=O)n2)cc1
2: [2H]C([2H])([2H])N(c1nccnc1CNc1nc(Nc2ccc(C(=O)NC)cc2)ncc1C(F)(F)F)S(C)(=O)=O
Out of 1 and 2 , name the one with the higher half-life at 2 μM. Answer = label.
1

---

assay: Pharmacokinetic experiment in rats (PO, 10 mpk); format: in vivo; details: Sprague-Dawley (SD), rat, 10 mg/kg, male SD rats, PO by gavage, plasma, read-out: Half life t1/2 (converted)
outcome_measure: half-life (h)

[2H]C([2H])([2H])NC(=O)c1ccc(Nc2ncc(C(F)(F)F)c(NCc3nccnc3N(C([2H])([2H])[2H])S(C)(=O)=O)n2)cc1 :: 2.46
CNC(=O)c1ccc(Nc2ncc(C(F)(F)F)c(NCc3nccnc3N(C)S(C)(=O)=O)n2)cc1 :: 1.46
[2H]C([2H])([2H])NC(=O)c1ccc(Nc2ncc(C(F)(F)F)c(NCc3nccnc3N(C)S(C)(=O)=O)n2)cc1 :: 1.74

---

experiment: Pharmacokinetic experiment in rats (PO, 10 mpk); format: in vivo; details: Sprague-Dawley (SD), rat, 10 mg/kg, male SD rats, PO by gavage, plasma, read-out: Peak hours tmax
outcome_measure: Tmax (min)

CNC(=O)c1ccc(Nc2ncc(C(F)(F)F)c(NCc3nccnc3N(C)S(C)(=O)=O)n2)cc1 :: 40.2

a: [2H]C([2H])([2H])NC(=O)c1ccc(Nc2ncc(C(F)(F)F)c(NCc3nccnc3N(C([2H])([2H])[2H])S(C)(=O)=O)n2)cc1
b: [2H]C([2H])([2H])NC(=O)c1ccc(Nc2ncc(C(F)(F)F)c(NCc3nccnc3N(C)S(C)(=O)=O)n2)cc1
Given a and b , report the one with the higher recorded Tmax. Answer = label.
a

---

test: Metabolic stability in human liver microsomes; type: in vitro ADME; conditions: human liver microsomes 0.5 mg/mL, test compound 2 μM, sampling 0-60 min; read-out: Half life t1/2 (min) in human liver microsomes
outcome_measure: half-life at 2 μM (min)

Guide cases for half-life at 2 μM, answers given:
[2H]C([2H])([2H])NC(=O)c1ccc(Nc2ncc(C(F)(F)F)c(NCc3nccnc3N(C([2H])([2H])[2H])S(C)(=O)=O)n2)cc1 [Compound 3] :: 781
CNC(=O)c1ccc(Nc2ncc(C(F)(F)F)c(NCc3nccnc3N(C)S(C)(=O)=O)n2)cc1 [Defactinib] :: 260

a: [2H]C([2H])([2H])NC(=O)c1ccc(Nc2ncc(C(F)(F)F)c(NCc3nccnc3N(C)S(C)(=O)=O)n2)cc1 [Compound 1]
b: [2H]C([2H])([2H])N(c1nccnc1CNc1nc(Nc2ccc(C(=O)NC)cc2)ncc1C(F)(F)F)S(C)(=O)=O [Compound 2]
Which record shows the lower half-life at 2 μM: the first, a , or the second, b ? Returns: label corresponding to the selected item.
b

---

assay: Pharmacokinetic experiment in rats (PO, 10 mpk); assay type: in vivo; conditions: Sprague-Dawley (SD), rat, 10 mg/kg, male SD rats, PO by gavage, plasma, read-out: Peak plasma concentration Cmax(ng/mL)
outcome_measure: Cmax (ng/mL)

[2H]C([2H])([2H])NC(=O)c1ccc(Nc2ncc(C(F)(F)F)c(NCc3nccnc3N(C([2H])([2H])[2H])S(C)(=O)=O)n2)cc1 :: 971

A: CNC(=O)c1ccc(Nc2ncc(C(F)(F)F)c(NCc3nccnc3N(C)S(C)(=O)=O)n2)cc1
B: [2H]C([2H])([2H])NC(=O)c1ccc(Nc2ncc(C(F)(F)F)c(NCc3nccnc3N(C)S(C)(=O)=O)n2)cc1
Sort A and B by Cmax descending and give the first. # respond with the chosen item's label
B
